measurement.target: Gonadotropin-releasing hormone receptor (Rattus norvegicus, UniProt P30969)
Sequence (P30969 whole entry): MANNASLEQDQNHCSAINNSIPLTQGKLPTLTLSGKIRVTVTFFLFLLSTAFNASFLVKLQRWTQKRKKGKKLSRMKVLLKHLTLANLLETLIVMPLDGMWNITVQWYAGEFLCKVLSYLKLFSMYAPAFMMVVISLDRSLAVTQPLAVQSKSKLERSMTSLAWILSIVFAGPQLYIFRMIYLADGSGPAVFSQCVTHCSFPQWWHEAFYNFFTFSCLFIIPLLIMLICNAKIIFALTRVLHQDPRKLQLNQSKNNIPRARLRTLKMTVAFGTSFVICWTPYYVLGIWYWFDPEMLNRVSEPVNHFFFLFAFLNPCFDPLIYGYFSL
Quick reference for pIC50 among some molecules
To interpret pIC50, take it as minus log10 of a concentration measured in moles per litre.

Solved cases (2 shown):
Cc1cc(C)cc(-c2[nH]c3ccc(OC(=O)N(C)C)cc3c2CCNCCCCc2ccc(O)cc2)c1 : 7.52
CCS(=O)(=O)N1CCN(C(=O)Oc2ccc3[nH]c(-c4cc(C)cc(C)c4)c(CCNCCCCc4ccc(O)cc4)c3c2)CC1 : 8.40

API: the following record is the query input.
Input: Item `Cc1cc(C)cc(-c2[nH]c3ccc(OC(=O)N4CCOCC4)cc3c2CCNCCCCc2ccc(O)cc2)c1` has what recorded pIC50?
Output: 7.70
